Please go through the items and note down their pKd.
Target: T1, IFN-αF (human, UniProt P01568 24-189)
T1 construct: also called IFN-α21; alpha F
T1 chain: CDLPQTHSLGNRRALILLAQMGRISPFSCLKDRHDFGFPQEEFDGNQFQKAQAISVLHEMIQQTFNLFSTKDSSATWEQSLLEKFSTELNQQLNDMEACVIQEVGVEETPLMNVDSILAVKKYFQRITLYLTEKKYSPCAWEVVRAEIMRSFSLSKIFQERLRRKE
Assay: ProteOn, one antigen concentration
Friendly reminder that pKd comes from taking -log10 of the concentration in mol/L.

Q) Return value of pKd for input IFWM3311 (antibody, V domains shown, VH IFWH591, VL IFWL1009; converted mAb; also called IFWB3046) VH: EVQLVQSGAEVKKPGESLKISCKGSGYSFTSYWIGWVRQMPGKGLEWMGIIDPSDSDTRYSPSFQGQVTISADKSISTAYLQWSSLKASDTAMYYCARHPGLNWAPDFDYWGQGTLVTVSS VL: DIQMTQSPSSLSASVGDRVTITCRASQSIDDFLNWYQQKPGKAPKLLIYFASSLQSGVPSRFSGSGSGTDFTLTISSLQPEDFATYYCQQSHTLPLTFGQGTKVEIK , no commentary.
A) 10.68

Q) Give me measured pKd, please, for this binder: IFWM3325 (antibody, V domains shown, VH IFWH591, VL IFWL1060; converted mAb; also called IFWB3060) VH: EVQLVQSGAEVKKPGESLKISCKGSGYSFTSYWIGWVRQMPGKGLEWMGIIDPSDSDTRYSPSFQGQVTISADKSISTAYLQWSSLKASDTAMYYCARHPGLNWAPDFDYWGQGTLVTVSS VL: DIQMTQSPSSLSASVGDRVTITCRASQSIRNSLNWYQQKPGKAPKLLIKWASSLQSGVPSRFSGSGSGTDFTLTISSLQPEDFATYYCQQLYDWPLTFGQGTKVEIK
A) 10.49
